What pIC50 was measured for each of the following?
biological target: opiate receptor; test: Opiate receptor affinity by method of Pasternak et al. using tritiated naloxone, absence of sodium ions; assay type: binding; conditions: TABLE 2 (Example 3), method indicated in Example 1: tritiated naloxone
Structures can show the parent of a compound that is named as a salt. Where a SMILES comes first, the peptide text is derived from it. [ ]: non-standard residue; d: D form.
// scale note: pIC50 = -log10(conc_M); give the bare number

Record summary for CCCC[C@H](NC(=O)[C@H](Cc1ccccc1)NC(=O)CNC(=O)CNC(=O)[C@@H](N)Cc1ccc(O)cc1)C(=O)O [(O), H . Tyr . Gly . Gly . Phe . Nle . OH HCl] : reported pIC50 = 7.10

Record summary for C[C@@H](NC(=O)[C@@H](N)Cc1ccc(O)cc1)C(=O)NCC(=O)N[C@@H](Cc1ccccc1)C(=O)N[C@H](C(=O)O)[C@@H](C)O [(Q), HCl] (H-Y[dA]GFT-OH) : reported pIC50 = 7.05

Record summary for COC(=O)[C@@H](CC(C)C)NC(=O)[C@H](Cc1ccccc1)NC(=O)CNC(=O)CNC(=O)[C@@H](N)Cc1ccc(O)cc1 [(W), HCl] : reported pIC50 = 7.22

----------
Target: opiate receptor
Assay: Opiate receptor affinity by method of Pasternak et al. using tritiated naloxone, absence of sodium ions
Type: binding
Details: TABLE 2 (Example 3), method indicated in Example 1: tritiated naloxone
Experimental: *Method of Pasternak, G. W. et al., Molecular Pharmacology, 11, 340-351 (1975) using tritiated naloxone and in the absence of sodium ions; assays performed at 4° C. in the presence of bacitracin (50 μg/ml) in trishydrochloric acid buffer (50 mM, pH 7.4). The opiate receptor IC50 (M) was ascertained by the method indicated in Example 1.
Counter-ions that a name gives are not always drawn. Where a SMILES comes first, the peptide text is derived from it. [ ]: non-standard residue; d: D form.
PROPERTY_LABEL: IC50 (nM)
Reply with just the number (in nM).

CSCC[C@@H](NC(=O)[C@H](Cc1ccccc1)NC(=O)CNC(=O)CNC(=O)[C@@H](N)Cc1ccc(O)cc1)C(=O)O [(Z), HCl] tested on opiate receptor gave IC50: 10

CC(C)C[C@@H](NC(=O)[C@H](Cc1ccccc1)NC(=O)CNC(=O)[C@@H](C)NC(=O)[C@@H](N)Cc1ccc(O)cc1)C(=O)Oc1ccc(Cl)cc1 [(U), HCl] tested on opiate receptor gave IC50: 50

CN[C@@H](Cc1ccc(O)cc1)C(=O)N[C@H](C)C(=O)NCC(=O)N[C@@H](Cc1ccccc1)C(=O)N[C@H](CC(C)C)C(=O)O [(V), HCl] tested on opiate receptor gave IC50: 30

CC(C)C[C@@H](NC(=O)[C@H](Cc1ccccc1)NC(=O)CNC(=O)CNC(=O)[C@@H](N)Cc1ccc(O)cc1)C(=O)O [(P), HCl] tested on opiate receptor gave IC50: 25

CC(C)C[C@@H](NC(=O)[C@H](Cc1ccccc1)NC(=O)CNC(=O)[C@@H](C)NC(=O)[C@@H](N)Cc1ccc(O)cc1)C(=O)N[C@H](C(=O)O)[C@@H](C)O [(R), HCl] (H-Y[dA]GF[dL]T-OH) tested on opiate receptor gave IC50: 30

COC(=O)[C@@H](CCSC)NC(=O)[C@H](Cc1ccccc1)NC(=O)CNC(=O)CNC(=O)[C@@H](N)Cc1ccc(O)cc1 [(Y), HCl] tested on opiate receptor gave IC50: 60

CC(C)C[C@H](NC(=O)[C@H](Cc1ccccc1)NC(=O)[C@H](C)NC(=O)[C@@H](C)NC(=O)[C@@H](N)Cc1ccc(O)cc1)C(=O)O [(N), HCl] (H-Y[dA]AFL-OH) tested on opiate receptor gave IC50: 80

CCNC(=O)[C@@H](CC(C)C)NC(=O)[C@H](Cc1ccc(Cl)cc1)NC(=O)CNC(=O)[C@@H](C)NC(=O)[C@@H](N)Cc1ccc(O)cc1 [(A1), HCl] tested on opiate receptor gave IC50: 80

CN[C@@H](Cc1ccc(O)cc1)C(=O)N[C@H](C)C(=O)NCC(=O)N[C@@H](Cc1ccccc1)C(=O)N[C@H](CC(C)C)C(N)=O [(X), HCl] tested on opiate receptor gave IC50: 20

C[C@@H](NC(=O)[C@@H](N)Cc1ccc(O)cc1)C(=O)NCC(=O)N[C@@H](Cc1ccccc1)C(=O)O [(T), H . Tyr . D-Ala . Gly . Phe . OH HCl] tested on opiate receptor gave IC50: 70

CSCC[C@@H](NC(=O)[C@H](Cc1ccccc1)NC(=O)CNC(=O)[C@@H](C)NC(=O)[C@@H](N)Cc1ccc(O)cc1)C(=O)N[C@H](C(=O)O)[C@@H](C)O [(S), HCl] (H-Y[dA]GF[dM]T-OH) tested on opiate receptor gave IC50: 70
